Hey, just so you know, these numbers are from the supplement of paper PMC9170038.

Reported apparent KD of MS2 coat protein values follow for various sequences
# System: MS2 coat protein
# Experiment: apparent KD of MS2 coat protein; designed switch direction (-1 OFF switch, 1 ON switch): -1; higher = weaker reporter binding
# Protocol conditions: input ligand: none
# number only, unit nM dropped from output

The examples below pair each entry with its known result.
UAAACUUGCUUCCGAUCCUACAUGAGGAUCACCCAUGUGCUCGUCUUGUAUCGUACUGUGACGUUAGUCACGGUACG [mod my first] (Eterna round: R97, puzzle: Sensor, turn-off variant 1): 464
CCGCCAUGAGGAUAUUAGUAGUAGUCAGAAAAGACUAUUACUGAGAAGGCACAUGAGGAUCACCCAUGUAGCGG [Mat - Exclusion 4 - Eli Mod - D50] (Eterna round: R97, puzzle: Exclusion 4): 41
UGUUUACAUGAGGAUCACCCAUGUCAGGAUAUGAUCGAUAUAUGGAAACAUAUAUCGAUCAGAAGGGACUAGUG [Jieuxxlusion 2 - Jieux - Exclusion 1] (Eterna round: R97, puzzle: Exclusion 1): 82.6

# input for lookup
Please list apparent KD of MS2 coat protein recorded for the sequence UUUUUAUAUGAAGGAUAUACUUAACAUGAGGAUCACCCAUGUGGUGUUGUGAGUGAGUGAGUUUAGUAGAAGGUCAAUUAGCUU [JMF's solution 100] (Eterna round: R96, puzzle: Exclusion NG 2)
342

---

# System: MS2 coat protein
# Experiment: apparent KD of MS2 coat protein; designed switch direction (-1 OFF switch, 1 ON switch): -1; higher = weaker reporter binding
# Protocol conditions: input ligand: FMN 200 uM
Reported apparent KD of MS2 coat protein values follow for various sequences
# number only, unit nM dropped from output

AAGAAGAAGUAAGGAUAUGAAGAUCUGGUGGUGACAUGAGGAUCACCCAUGUGAAAACGAUGAGAUCAGAAGGUAUAAGAAGAA [AK ExNG2-3.3] (Eterna round: R96, puzzle: Exclusion NG 2): 116
UUUAAUCGUGACAUGGGUGACAUGAGGAUCACCCAUGUCACAAGCUUCUUGCUCGUCUUAUAAUUAACCCAUGUCAC [LRO Sensor-off var1-12 mod of Stov1-13-A1 by Brourd] (Eterna round: R97, puzzle: Sensor, turn-off variant 1): 18.8

Please list apparent KD of MS2 coat protein recorded for the sequence CUUCUGUGAGGAUAUUAGUAGUAAAUGAAUAAAAUUAUUACUGAGAAGGCACAUGAGGAUCACCCAUGUUCCUC [Mat - Exclusion 4 - Eli Mod - D12] (Eterna round: R97, puzzle: Exclusion 4)
386

---

Reported apparent KD of MS2 coat protein values follow for various sequences
# Test system: MS2 coat protein
# Experiment: apparent KD of MS2 coat protein; designed switch direction (-1 OFF switch, 1 ON switch): -1; higher = weaker reporter binding
# Protocol conditions: input ligand: FMN 200 uM
# number only, unit nM dropped from output

UUUUGCUCAGGAUAUACAUGAGGAUCACCCAUGUAUAUUGAAGAUAAUACAUGGGAAUGUAGAAGGGAGCUCAU [Omei Ex3 Pseudoloop 19] (Eterna round: R97, puzzle: Exclusion 3): 73.5
CAAUAUUACUGAGGAUAUCCUAGUGUAUUUCAGGGAGAAGGCGGACUCAACAUGAGGAUCACCCAUGUAAGACGGGUACUAGAU [Ex NG1 #17] (Eterna round: R96, puzzle: Exclusion NG 1): 89.3
ACGCGACAUGAGGAUCACCCAUGUGAGGAUAUGGCCUGUUUGUCGUGUGCUGGCUCUGUCAGAAGGCGCGUGGG [salish99_ex1_r4_041] (Eterna round: R97, puzzle: Exclusion 1): 612

Report apparent KD of MS2 coat protein under test system MS2 coat protein for GCGUACUGAGGAUAUACAUGAGGAUCACCCAUGUAACACAGCAUAUGUGAAGUUUUUUGUAGAAGGCAGUAUGC [JR_Ex3_Sub056] (Eterna round: R97, puzzle: Exclusion 3) .
180

Report apparent KD of MS2 coat protein under test system MS2 coat protein for AGCUAGUGCCGAGGAUAUGAUACAUGAGGAUCACCCAUGUGUAGGGUGUAUAUAUAUCAAUAAUAUUAGAAGGCGGCGUUGGCA [JL ENG2 1.47] (Eterna round: R96, puzzle: Exclusion NG 2) .
785

Report apparent KD of MS2 coat protein under test system MS2 coat protein for UUUUUGUCAGGAUAUGAUUAGAUCUACUUCGGUAGAUCUAAUCAGAAGGGACAUGAGGAUCACCCAUGUAGUUU [Mod of Brourd - Jieux - Exclusion 4] (Eterna round: R97, puzzle: Exclusion 4) .
311

Report apparent KD of MS2 coat protein under test system MS2 coat protein for UAUGGUAAAGUCAGGAUAUACGUGCAGUUUUCUAGGUAGAAGGGACAUGAGGAUCACCCAUGUAUGGUAGUGUU [Ex4 #46] (Eterna round: R97, puzzle: Brourd's mod of Exclusion 4) .
95.1
